biological target: collagenase from Clostridium histolyticum; assay: Anti-collagenase assay (FALGPA substrate); conditions: 20 min at 37 °C, absorbance 335 nm, mean ± SD, triplicate
# IC50 per record follows
Please respond with the number in µM and leave the unit unwritten.

Before answering, review these 4 worked examples.
compound="O=c1cc(-c2cccc(O)c2)oc2c(C3OC(CO)C(O)C(O)C3O)c(O)c(C3OC(CO)C(O)C(O)C3O)c(O)c12 (centres unmarked)" measurement_target="collagenase from Clostridium histolyticum" units_of_measure=µM recorded_value=53.4
compound="O=C(O[C@@H]1Cc2c(O)cc(O)cc2O[C@@H]1c1cc(O)c(O)c(O)c1)c1cc(O)c(O)c(O)c1 [EGCG, epigallocatechin gallate, reference compound]" measurement_target="collagenase from Clostridium histolyticum" units_of_measure=µM recorded_value=34.8
compound="COc1cc(-c2cc(=O)c3c(O)c(C4OC(CO)C(O)C(O)C4O)c(O)c(C4OCC(O)C(O)C4O)c3o2)ccc1O (centres unmarked)" measurement_target="collagenase from Clostridium histolyticum" units_of_measure=µM recorded_value=71.1
compound="COc1cc(-c2cc(=O)c3c(O)cc(O)c(C4OCC(O)C(O)C4OC4OC(CO)C(OC(C)=O)C(O)C4O)c3o2)ccc1OC(C)=O (centres unmarked)" measurement_target="collagenase from Clostridium histolyticum" units_of_measure=µM recorded_value=39.6

Consider the record given below.
Request: Identify measured IC50 associated with O=c1cc(-c2ccc(O)c(O)c2)oc2c(C3OC(CO)C(O)C(O)C3O)c(O)c(C3OCC(O)C(O)C3O)c(O)c12 (centres unmarked)
Response: 73.9
